Biological target: (Homo sapiens, UniProt Q96P20)
Construct: IL-1β ELISA of supernatant
Sequence (Q96P20 whole entry): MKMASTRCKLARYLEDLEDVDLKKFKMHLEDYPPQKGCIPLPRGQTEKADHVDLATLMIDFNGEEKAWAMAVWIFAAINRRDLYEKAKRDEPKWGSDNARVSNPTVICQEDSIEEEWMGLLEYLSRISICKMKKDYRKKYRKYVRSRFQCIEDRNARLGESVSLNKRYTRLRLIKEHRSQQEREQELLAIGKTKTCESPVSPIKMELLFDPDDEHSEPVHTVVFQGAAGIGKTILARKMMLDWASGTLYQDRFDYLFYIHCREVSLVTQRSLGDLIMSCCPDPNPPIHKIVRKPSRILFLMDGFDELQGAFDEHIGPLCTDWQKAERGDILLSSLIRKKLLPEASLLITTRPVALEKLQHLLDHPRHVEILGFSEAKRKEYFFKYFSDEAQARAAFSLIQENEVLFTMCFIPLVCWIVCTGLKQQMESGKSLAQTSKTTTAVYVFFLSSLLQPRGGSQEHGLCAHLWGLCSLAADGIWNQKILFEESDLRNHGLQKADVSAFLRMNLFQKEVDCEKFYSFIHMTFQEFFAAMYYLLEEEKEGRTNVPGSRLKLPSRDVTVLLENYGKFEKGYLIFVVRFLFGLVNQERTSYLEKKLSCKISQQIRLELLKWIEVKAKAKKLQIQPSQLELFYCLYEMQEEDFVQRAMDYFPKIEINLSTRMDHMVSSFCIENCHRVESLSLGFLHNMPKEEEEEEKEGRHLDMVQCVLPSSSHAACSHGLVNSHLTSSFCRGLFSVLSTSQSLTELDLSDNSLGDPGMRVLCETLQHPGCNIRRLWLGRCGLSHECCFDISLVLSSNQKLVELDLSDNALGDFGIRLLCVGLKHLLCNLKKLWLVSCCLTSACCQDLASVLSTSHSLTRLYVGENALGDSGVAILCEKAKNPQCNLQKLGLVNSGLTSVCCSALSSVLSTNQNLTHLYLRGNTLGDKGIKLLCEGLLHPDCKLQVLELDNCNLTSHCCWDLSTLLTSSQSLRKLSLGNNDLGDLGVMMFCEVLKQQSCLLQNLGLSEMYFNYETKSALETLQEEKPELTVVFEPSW
Experiment: IL-1β secretion assay in THP-1 cells (PMA differentiated, LPS and nigericin stimulated; ELISA)
Assay type: cell-based
Settings: inhibition of IL-1β secretion, 25 ng/mL LPS, 5 μM Nigericin, 0.5% DMSO, read-out: Activity (IC50 class)
MEASURE_NAME: IC50

INSERT INTO results (compound, measure_name, result) VALUES
  ('O=C(CN1C(=O)c2ccc(Br)cc2[C@@H]2CC[C@@H]21)Nc1ncc(F)cn1 (relative stereo)', 'IC50', '< 1000 nM'),
  ('O=C(CN1C(=O)c2ccc(Br)cc2[C@@H]2C[C@@H]21)Nc1ncc(F)cn1 (relative stereo)', 'IC50', '< 1000 nM'),
  ('O=C(CN1C(=O)c2ccc(Br)cc2[C@]2(C(F)(F)F)C[C@H]12)Nc1ncc(F)cn1 (single isomer, unassigned) [compound 2]', 'IC50', '< 1000 nM');

Please look at the following compound next.
compound O=C(CN1C(=O)c2ccc(Br)cc2[C@]2(C(F)(F)F)C[C@H]12)Nc1ncc(F)cn1 (single isomer, unassigned) [compound 3] , IC50 observed: 1000 to 10000 nM

----------
Target: (Homo sapiens, UniProt Q96P20)
Construct: IL-1β ELISA of supernatant
Assay: IL-1β secretion assay in THP-1 cells (PMA differentiated, LPS and nigericin stimulated; ELISA)
Assay type: cell-based
Conditions: read-out: Activity (IC50 class), inhibition of IL-1β secretion, 25 ng/mL LPS, 5 μM Nigericin, 0.5% DMSO
pIC50: −log10 of the molar value.
MEASURE_NAME: pIC50

The recorded pIC50 with (Homo sapiens, UniProt Q96P20) for O=C(CN1C(=O)c2ccc(Br)cc2[C@@H]2CCC[C@@H]21)Nc1ncc(F)cn1 (relative stereo) [compound 1] was > 6.00

----------
Biological target: (Homo sapiens, UniProt Q96P20)
Construct: IL-1β ELISA of supernatant
Test: IL-1β secretion assay in THP-1 cells (PMA differentiated, LPS and nigericin stimulated; ELISA)
Assay type: cell-based
Conditions: inhibition of IL-1β secretion, 25 ng/mL LPS, 5 μM Nigericin, 0.5% DMSO, read-out: Activity (IC50)
MEASURE_NAME: IC50 (nM)

INSERT INTO results (molecule, units, recorded_number) VALUES
  ('O=C(CN1C(=O)c2ccc(Br)cc2[C@]2(C(F)(F)F)C[C@H]12)Nc1ncc(F)cn1 (single isomer, unassigned) [compound 2]', 'nM', 270);

I: O=C(CN1C(=O)c2ccc(Br)cc2[C@@H]2CC[C@@H]21)Nc1ncc(F)cn1 (relative stereo)
II: O=C(CN1C(=O)c2ccc(Br)cc2[C@]2(C(F)(F)F)C[C@H]12)Nc1ncc(F)cn1 (single isomer, unassigned) [compound 3]
III: O=C(CN1C(=O)c2ccc(Br)cc2[C@@H]2C[C@@H]21)Nc1ncc(F)cn1 (relative stereo)
IN: Please put the entries in order of rising IC50. Would you mind listing the labels in the order requested?
OUT: I, III, II

----------
Target: (Homo sapiens)
Construct: IL-1β ELISA of supernatant
Test: IL-1β secretion assay in THP-1 cells (PMA differentiated, LPS and nigericin stimulated; ELISA)
Assay type: cell-based
Settings: read-out: Activity (IC50), inhibition of IL-1β secretion, 25 ng/mL LPS, 5 μM Nigericin, 0.5% DMSO
MEASURE_NAME: IC50 (nM)
Write the answer as a number in nM, unit excluded.

molecule O=C(CN1C(=O)c2ccc(Br)cc2[C@@H]2CCC[C@@H]21)Nc1ncc(F)cn1 (relative stereo) , IC50 observed: 700
